Every entry's value here was drawn from ChEMBL document CHEMBL5131472.

The entries below come with measured pIC50 values attached.
system: Influenza A virus; experiment: Antiviral activity against Influenza A virus A/WSN/33(H1N1) infected in dog MDCK cells assessed as reduction in viral titer in supernatants incubated for 24 hrs by plaque assay; type: functional, organism-based
Note on pIC50: it is the negative log10 of concentration, concentration in mol/L.

- compound: "COc1ncnc2c([C@@H]3O[C@H](CO)[C@@H](O)[C@H]3O)n[nH]c12"
  quantity-name: "pIC50"
  measured-value: 7.06

Form field: reported pIC50 of CSc1ncnc2c([C@@H]3O[C@H](CO)[C@@H](O)[C@H]3O)nn(C)c12
6.46

Which pIC50 value is on record for OC[C@H]1O[C@@H](c2n[nH]c3c([SeH])ncnc23)[C@H](O)[C@@H]1O ?
7.46
